# measured-on: UniProtKB O43613
# Sequence (O43613 whole entry): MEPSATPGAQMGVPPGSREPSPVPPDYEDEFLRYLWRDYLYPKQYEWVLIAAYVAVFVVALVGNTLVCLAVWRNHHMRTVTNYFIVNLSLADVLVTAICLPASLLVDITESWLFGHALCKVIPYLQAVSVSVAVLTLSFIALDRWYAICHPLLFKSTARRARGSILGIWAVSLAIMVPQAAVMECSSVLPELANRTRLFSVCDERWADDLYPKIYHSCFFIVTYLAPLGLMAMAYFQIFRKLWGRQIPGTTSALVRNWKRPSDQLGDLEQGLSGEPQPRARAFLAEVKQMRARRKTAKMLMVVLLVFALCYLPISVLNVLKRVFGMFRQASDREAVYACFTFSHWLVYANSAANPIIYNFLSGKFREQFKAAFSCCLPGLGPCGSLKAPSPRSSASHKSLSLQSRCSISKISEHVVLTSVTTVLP
# assay-details: Human orexin 1 receptor radioligand binding (competitive)
# run-parameters: CHO cells stably expressing human orexin 1 receptor; 4 nM radioligand; averages of 2-20 runs; read-out: hOX1 Ki
pKi: −log10 of the molar value.
Lab note: anything with pKi at or over 8 counts as yes; the rest go in no.

1. O=C(c1c(F)cccc1-c1ncco1)N1C(CF)C2CC(Oc3ccc(C(F)(F)F)cn3)C1C2 (racemic) :: no
2. C[C@@H]1[C@H]2C[C@@H](Nc3ccc(C(F)(F)F)cn3)[C@H](C2)N1C(=O)c1ncccc1-c1ncccn1 (relative stereo) :: yes

From here, focus on the item given below.
Lookup: Decide: pKi of C[C@@H]1[C@H]2C[C@@H](Oc3ccc(C(F)(F)F)cn3)[C@H](C2)N1C(=O)c1ccccc1-c1ccnc(F)c1 >= 8?
Found: no

====

So I've got Ki readings for human orexin 2 receptor (Homo sapiens (Human), UniProt O43614), take a look.

Use the examples below as a reference point.
1. CC1C2CC(Oc3ccc(C(F)(F)F)cn3)C(C2)N1C(=O)c1cccc(F)c1-c1ncccn1 (single isomer, unassigned) [Example 1] :: 5200 nM
2. Cc1cnc(C(=O)N2[C@H](C)[C@H]3C[C@@H](Nc4ccc(C(F)(F)F)cn4)[C@@H]2C3)c(-n2nccn2)c1 (relative stereo) [Example 66] :: 317 nM

Lookup: Give the observed Ki of O=C(c1c(F)cccc1-c1ncco1)N1C(CF)C2CC(Oc3ccc(C(F)(F)F)cn3)C1C2 (racemic) [Example 71] for human orexin 2 receptor (Homo sapiens (Human), UniProt O43614).
Found: 1500 nM

====

So I've got pKi readings for human orexin 2 receptor (Homo sapiens (Human), UniProt O43614), take a look.
Interpret pKi as the negative base-10 log of the concentration measured in mol/L.

Use the examples below as a reference point.
1) C[C@@H]1[C@H]2C[C@@H](Oc3cnc(C(F)(F)F)cn3)[C@H](C2)N1C(=O)c1ccc(F)cc1-n1nccn1 (relative stereo) :: 5.12
2) Cc1ccc(-n2nccn2)c(C(=O)N2[C@H](CO)[C@@H]3CC[C@H]2[C@H](Oc2ccc(C(F)(F)F)cn2)C3)n1 :: 5.09

Could you now consider this next compound?
Lookup: Consider the compound COC[C@@H]1[C@@H]2CC[C@@H]([C@H](Oc3ccc(C(F)(F)F)cn3)C2)N1C(=O)c1nc(C)ccc1-n1nccn1 and give its recorded pKi.
Found: 5.68

====

# measured-on: UniProtKB O43614
parameter-measured: pKi
Interpret pKi as the negative base-10 log of the concentration measured in mol/L.

Use the examples below as a reference point.
1) CC(C)CC1C2CC(Oc3ccc(C(F)(F)F)cn3)C(C2)N1C(=O)c1ccccc1-c1ncc(F)cn1 (racemic) :: 5.42
2) Cc1cnc(-n2nccn2)c(C(=O)N2[C@H](C)[C@H]3C[C@@H](Oc4ccc(Cl)cn4)[C@@H]2C3)c1 :: 5.54
3) Cc1ccc(C(=O)N2[C@H](C)[C@H]3C[C@@H](Oc4ccc(Cl)cn4)[C@@H]2C3)c(-n2nccn2)n1 :: 5.33
4) Cc1ccc(-n2nccn2)c(C(=O)N2C(CF)C3CC(Oc4ccc(C(F)(F)F)cn4)C2C3)n1 (racemic) :: 5.70
5) CC1C2CC(Oc3ccc(C(F)(F)F)cn3)C(C2)N1C(=O)c1cc(F)ccc1-c1ncccn1 (racemic) [Example 18] :: 5.80

Lookup: Consider the molecule Cc1ccc(-n2nccn2)c(C(=O)N2[C@H](C)[C@H]3C[C@@H](Oc4cnc5ccccc5n4)[C@@H]2C3)n1 (relative stereo) and give its recorded pKi.
Found: 6.71

Lookup: Consider the molecule CC1C2CC(Oc3ccc(C(F)(F)F)cn3)C(C2)N1C(=O)c1cccc(F)c1-c1ncc(F)cn1 (single isomer, unassigned) [Example 20B] and give its recorded pKi.
Found: 5.72

====

So I've got pKi readings for UniProt O43613, take a look.
Interpret pKi as the negative base-10 log of the concentration measured in mol/L.

Use the examples below as a reference point.
1) Cc1cnc(C(=O)N2C(CC(C)C)C3CC(Oc4ccc(C(F)(F)F)cn4)C2C3)c(-n2nccn2)c1 (racemic) :: 6.77
2) C[C@@H]1[C@H]2C[C@@H](Oc3ccc(C(F)(F)F)cn3)[C@H](C2)N1C(=O)c1cc(F)ccc1-n1nccn1 (relative stereo) :: 7.85

Could you now consider this next compound?
Lookup: Give the observed pKi of CCC1C2CC(Oc3ccc(C(F)(F)F)cn3)C(C2)N1C(=O)c1ncc(C)cc1-n1nccn1 (racemic) for UniProt O43613.
Found: 7.96

====

So I've got Ki readings for rat orexin 1 receptor (Rattus norvegicus), take a look.
Lab book: enter the figure in nM, no units written.

1) [2H]C([2H])([2H])[C@]1([2H])[C@H]2C[C@@H](Oc3ccc(C(F)(F)F)cn3)[C@H](C2)N1C(=O)c1cccc(F)c1-n1nccn1 [Example 164] :: 5
2) C[C@@H]1[C@H]2C[C@@H](Oc3cnc(C(F)(F)F)cn3)[C@H](C2)N1C(=O)c1cccc(F)c1-n1nccn1 (relative stereo) [Example 52] :: 18
3) CCOC(=O)[C@@H]1[C@H]2C[C@@H](Oc3ccc(C(F)(F)F)cn3)[C@H](C2)N1C(=O)c1nc(C)ccc1-n1nccn1 [Example 192] :: 53
4) COC[C@@H]1[C@@H]2CC[C@@H]([C@H](Oc3ccc(C(F)(F)F)cn3)C2)N1C(=O)c1nc(C)ccc1-n1nccn1 [Example 179] :: 15

Lookup: Give the observed Ki of [2H]C1([2H])[C@H]2C[C@@H]([C@@H]1Oc1ccc(Cl)cn1)N(C(=O)c1ccccc1-n1nccn1)[C@@H]2C [Example 195] for rat orexin 1 receptor (Rattus norvegicus).
Found: 8

Lookup: Give the observed Ki of CCC1C2CC(Oc3ccc(C(F)(F)F)cn3)C(C2)N1C(=O)c1ncc(C)cc1-n1nccn1 (racemic) [Example 216] for rat orexin 1 receptor (Rattus norvegicus).
Found: 11

Lookup: Give the observed Ki of C[C@@H]1[C@H]2C[C@@H](Oc3ccc(Cl)cn3)[C@H](C2)N1C(=O)c1ccccc1-n1nccn1 [Example 121] for rat orexin 1 receptor (Rattus norvegicus).
Found: 3

Lookup: Give the observed Ki of C[C@@H]1[C@H]2C[C@@H](Oc3ccc(C(F)(F)F)cn3)[C@H](C2)N1C(=O)c1ccccc1-c1ccc(F)nc1 [Example 171] for rat orexin 1 receptor (Rattus norvegicus).
Found: 23

Lookup: Give the observed Ki of Cc1ccc(-n2nccn2)c(C(=O)N2[C@H](C)[C@H]3C[C@@H](Oc4cnc5cc(F)ccc5n4)[C@@H]2C3)n1 (relative stereo) [Example 186] for rat orexin 1 receptor (Rattus norvegicus).
Found: 18

Lookup: Give the observed Ki of C[C@@H]1[C@H]2C[C@@H](Oc3ccc(C(F)(F)F)cn3)[C@H](C2)N1C(=O)c1ccccc1-c1ncc(OCCF)cn1 [Example 169] for rat orexin 1 receptor (Rattus norvegicus).
Found: 52

Lookup: Give the observed Ki of Cc1cnc(-n2nccn2)c(C(=O)N2[C@H](C)[C@H]3C[C@@H](Oc4ccc(Cl)cn4)[C@@H]2C3)c1 [Example 194] for rat orexin 1 receptor (Rattus norvegicus).
Found: 5

Lookup: Give the observed Ki of CC1C2CC(Oc3ccc(C(F)(F)F)cn3)C(C2)N1C(=O)c1ccccc1-c1ncc(F)cn1 (single isomer, unassigned) [Example 19A] for rat orexin 1 receptor (Rattus norvegicus).
Found: 746

Lookup: Give the observed Ki of C[C@@H]1[C@H]2C[C@@H](Oc3ccc(C(F)(F)F)c(F)n3)[C@H](C2)N1C(=O)c1ccccc1-c1ncccn1 [Example 219] for rat orexin 1 receptor (Rattus norvegicus).
Found: 4

Lookup: Give the observed Ki of C[C@@H]1[C@H]2C[C@@H](Oc3ccc(C(F)(F)F)cn3)[C@H](C2)N1C(=O)c1ccccc1-c1cnc(F)cn1 [Example 170] for rat orexin 1 receptor (Rattus norvegicus).
Found: 9

Lookup: Give the observed Ki of C[C@@H]1[C@H]2C[C@@H](Oc3cnc(C(F)(F)F)cn3)[C@H](C2)N1C(=O)c1cc(F)ccc1-n1nccn1 (relative stereo) [Example 54] for rat orexin 1 receptor (Rattus norvegicus).
Found: 26

Lookup: Give the observed Ki of C[C@@H]1[C@H]2C[C@@H](Oc3ccc(C(F)(F)F)cn3)[C@H](C2)N1C(=O)c1c(OCCF)ccc2cccnc12 [Example 206] for rat orexin 1 receptor (Rattus norvegicus).
Found: 7.4

Lookup: Give the observed Ki of CCC1C2CC(Oc3ccc(C(F)(F)F)cn3)C(C2)N1C(=O)c1ccccc1-n1nccn1 (racemic) [Example 213] for rat orexin 1 receptor (Rattus norvegicus).
Found: 4

Lookup: Give the observed Ki of C[C@@H]1[C@H]2C[C@@H](Oc3ccc(C(F)(F)F)cn3)[C@H](C2)N1C(=O)c1cc(F)ccc1-n1nccn1 (relative stereo) [Example 29] for rat orexin 1 receptor (Rattus norvegicus).
Found: 5

Lookup: Give the observed Ki of Cc1ccc(-c2ncccn2)c(C(=O)N2[C@H](C)[C@H]3C[C@@H](Nc4ccc(C(F)(F)F)cn4)[C@@H]2C3)n1 [Example 60] for rat orexin 1 receptor (Rattus norvegicus).
Found: 16

Lookup: Give the observed Ki of CC1C2CC(Nc3cnc(C(F)(F)F)cn3)C(C2)N1C(=O)c1cccc(F)c1-c1ncccn1 (single isomer, unassigned) [Example 4] for rat orexin 1 receptor (Rattus norvegicus).
Found: 56

Lookup: Give the observed Ki of Cc1cnc(C(=O)N2C(C)C3CC(Nc4ccc(C(F)(F)F)cn4)C2C3)c(-c2ncccn2)c1 (racemic) [Example 59] for rat orexin 1 receptor (Rattus norvegicus).
Found: 20

Lookup: Give the observed Ki of CC(C)CC1C2CC(Oc3ccc(C(F)(F)F)cn3)C(C2)N1C(=O)c1ccccc1-n1nccn1 (racemic) [Example 207] for rat orexin 1 receptor (Rattus norvegicus).
Found: 51
